Assay: PK after subcutaneous administration of solutions in dogs
Format: in vivo, Beagle dog
Settings: male, beagle, dog, plasma, sc, 12 mg/kg, male beagle dog; single SC 12 mg/kg; 400 mg/mL in 85% PEG300 and 15% water; mean ± SD, n=3; read-out: AUC0-24h
ASSAY_ENDPOINT: AUC(0-t) (µM·h)
Dear colleague, please return just the value in µM·h, with no unit written.

Please give measured AUC(0-t) of the following entry: CC(C)(C#Cc1ccc(-c2ccc(Cl)c3c(NS(C)(=O)=O)nn(CC(F)(F)F)c23)c([C@H](Cc2cc(F)cc(F)c2)NC(=O)Cn2nc(C(F)(F)F)c3c2C(F)(F)[C@@H]2C[C@H]32)n1)S(C)(=O)=O 0.304

====

Test: PK after oral administration in liquid-filled capsules in dogs
Assay type: in vivo, beagle dogs
Settings: dog, plasma; beagle dogs; oral liquid-filled capsules, 100% glycerol monocaprylocaprate, 7.5 mg fixed dose; 50 mg/mL (Table S); mean ± SD, n=6; read-out: C72h
ASSAY_ENDPOINT: concentration at 72 h (nM)
Write the answer as a number in nM, unit excluded.

Report concentration at 72 h for CC(C)(C#Cc1ccc(-c2ccc(Cl)c3c(NS(C)(=O)=O)nn(CC(F)(F)F)c23)c([C@H](Cc2cc(F)cc(F)c2)NC(=O)Cn2nc(C(F)(F)F)c3c2C(F)(F)[C@@H]2C[C@H]32)n1)S(C)(=O)=O 20.1

====

Test: PK after subcutaneous administration of solutions in rats
Type: in vivo, Wistar Han rat
Details: male, Wistar Han, rat, plasma, sc, 50 mg/kg, rat #3; 8 h; SC 50 mg/kg, 300 mg/mL in 15% water/85% PEG 300
ASSAY_ENDPOINT: concentration at 8 h (nM)
The reply should be a number in nM, with the unit left off.

Annotate the compound CC(C)(C#Cc1ccc(-c2ccc(Cl)c3c(NS(C)(=O)=O)nn(CC(F)(F)F)c23)c([C@H](Cc2cc(F)cc(F)c2)NC(=O)Cn2nc(C(F)(F)F)c3c2C(F)(F)[C@@H]2C[C@H]32)n1)S(C)(=O)=O with its measured concentration at 8 h. 26.8

====

Experiment: PK after subcutaneous administration of solutions in rats
Type: in vivo, Wistar Han rat
Settings: male, Wistar Han, rat, plasma, sc, 50 mg/kg, rat #2; 1680 h; SC 50 mg/kg, 300 mg/mL in 15% water/85% PEG 300
ASSAY_ENDPOINT: concentration at 1680 h (nM)
Field: numeric (nM). Do not append units.

Give the value of concentration at 1680 h reported for the following: CC(C)(C#Cc1ccc(-c2ccc(Cl)c3c(NS(C)(=O)=O)nn(CC(F)(F)F)c23)c([C@H](Cc2cc(F)cc(F)c2)NC(=O)Cn2nc(C(F)(F)F)c3c2C(F)(F)[C@@H]2C[C@H]32)n1)S(C)(=O)=O 166

====

Experiment: Plasma PK after single oral administration in solution, rat
Type: in vivo, Sprague-Dawley Rat
Settings: male, Sprague-Dawley, plasma; rat; single oral 5.0 mg/kg; solution in 5% ethanol/20% propylene glycol/45% PEG 300/30% 0.01 N HCl; mean ± SD, n=3
ASSAY_ENDPOINT: Cmax

Specify measured Cmax for CC(C)(C#Cc1ccc(-c2ccc(Cl)c3c(NS(C)(=O)=O)nn(CC(F)(F)F)c23)c([C@H](Cc2cc(F)cc(F)c2)NC(=O)Cn2nc(C(F)(F)F)c3c2C(F)(F)[C@@H]2C[C@H]32)n1)S(C)(=O)=O . 336 µM
